A collection of compounds and their measured IC50
- Target Or System: NS3 (West Nile virus, UniProt K4FQI5)
- Sequence (K4FQI5 whole entry): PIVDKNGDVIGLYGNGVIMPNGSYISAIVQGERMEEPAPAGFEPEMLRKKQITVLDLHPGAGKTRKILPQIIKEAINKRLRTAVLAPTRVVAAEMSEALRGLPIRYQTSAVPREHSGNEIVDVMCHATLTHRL
- Method Description: Functional biochemical assay to identify treatments for viral infectious disease that targets West Nile NS2B-NS3 protease. Utilizing a direct enzyme activity measurement method, reading the fluorescence intensity is used to characterize the relative potency of inhibitors as IC50.

Enquiry: Given `Cc1c(C(=O)Nc2cc(-c3cccnc3)ccn2)cc(C2CC2)n1C` , state its recorded IC50.
Return: 12.8 µM

Enquiry: Then this compound: `O=C(Nc1ccc2c(c1)CNC2)c1cc(Cl)ccc1-n1cncn1`
Return: 42.7 µM

Enquiry: Next compound up: `Cc1ccc(NC(=O)c2cc(Cl)cc(NC(=O)OCc3ccccc3)c2)cc1CN`
Return: 60.7 µM

Enquiry: Subsequent entry: `O=C(Nc1ccc2c(c1)CNC2)c1cccc2sccc12`
Return: 13.8 µM

Enquiry: Now the compound `O=C(Nc1ccc2c(c1)CNC2)c1cc(F)cc2c1CCC2`
Return: 4.41 µM
